Experiment: Measurement of compounds in brain after oral gavage (HPLC-MS)
Type: in vivo, C57BL/6 mice
Settings: C57BL/6, mouse, brain, oral gavage 10 mg/kg, read-out: achievable concentration in brain

- MOLECULE: "COc1ccc(CC[C@H]2OC(=O)[C@@H]3CCCCN3C(=O)C(=O)C(C)(C)COC(=O)C=CCCN(C)C(=O)[C@@H]3CCCN3C(=O)[C@H](COC(C)(C)C)N(C)C(=O)C(c3ccccc3)NC(=O)[C@H](C)N(C)C(=O)COc3cccc2c3)cc1OC (stereo partly shown) [compound 56]"
  concentration at 2 h: "< 500 nM"

----------
Biological target: UniProtKB P14174
Sequence (P14174 1-115): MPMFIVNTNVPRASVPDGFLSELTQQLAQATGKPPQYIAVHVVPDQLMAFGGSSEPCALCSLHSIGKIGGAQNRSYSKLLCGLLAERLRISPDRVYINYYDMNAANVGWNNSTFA
Test: Nuclease assay of Example 3 (MIF inhibitory activity, Table 4)
Format: biochemical
Parameters: concentration or dose not given beside the values
Conditions: nuclease assay of Example 3
Each item that follows carries a reported (%) inhibition of MIF nuclease activity.

- COMPOUND: "COc1ccc(CC[C@H]2OC(=O)[C@@H]3CCCCN3C(=O)C(=O)C(C)(C)COC(=O)C=CCCN(C)C(=O)[C@H](Cc3ccc4ccccc4c3)NC(=O)[C@H](COC(C)(C)C)N(C)C(=O)C(c3ccccc3)NC(=O)CN(C)C(=O)COc3cccc2c3)cc1OC (stereo partly shown) [compound 43]"
  UNIT_STRING: "%"
  (%) inhibition of MIF nuclease activity: 45.6
- COMPOUND: "COc1ccc(CC[C@H]2OC(=O)[C@@H]3CCCCN3C(=O)C(=O)C(C)(C)COC(=O)C=CCCN(C)C(=O)[C@@H]3CCCN3C(=O)[C@H](CO)N(C)C(=O)C(c3ccccc3)NC(=O)C(CO)N(C)C(=O)COc3cccc2c3)cc1OC (stereo partly shown) [compound 108]"
  UNIT_STRING: "%"
  (%) inhibition of MIF nuclease activity: 4.2
- COMPOUND: "COc1ccc(CC[C@H]2OC(=O)[C@@H]3CCCCN3C(=O)C(=O)C(C)(C)COC(=O)C=CCCN(C)C(=O)CNC(=O)[C@H](C(C)C)N(C)C(=O)[C@@H](Cc3ccccc3)NC(=O)[C@H](CC(C)C)N(C)C(=O)CCC(=O)Nc3cccc2c3)cc1OC [compound 76]"
  UNIT_STRING: "%"
  (%) inhibition of MIF nuclease activity: 73.5
- COMPOUND: "COc1cc(CC[C@H]2OC(=O)[C@@H]3CCCCN3C(=O)C(=O)C(C)(C)COC(=O)C=CCCN(C)C(=O)[C@@H]3CCCN3C(=O)[C@H](COC(C)(C)C)N(C)C(=O)C(c3ccccc3)NC(=O)[C@H](C)N(C)C(=O)COc3cccc2c3)cc(O)c1OC (stereo partly shown) [compound 120]"
  UNIT_STRING: "%"
  (%) inhibition of MIF nuclease activity: 7.1

----------
Molecular target: MIF (Homo sapiens)
Sequence (P14174 1-115): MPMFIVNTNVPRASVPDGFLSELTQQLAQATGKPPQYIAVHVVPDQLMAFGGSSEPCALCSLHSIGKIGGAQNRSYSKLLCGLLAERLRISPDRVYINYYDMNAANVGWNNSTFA
Assay: Nuclease assay of Example 3 (MIF inhibitory activity, Table 4)
Format: biochemical
Set-up: concentration or dose not given beside the values
Details: nuclease assay of Example 3
Y means recorded (%) inhibition of MIF nuclease activity is 20% or above; N means it is below 20%.

- COMPOUND: "COc1cc(O)c(CC[C@H]2OC(=O)[C@@H]3CCCCN3C(=O)C(=O)C(C)(C)COC(=O)C=CCCN(C)C(=O)[C@@H]3CCCN3C(=O)[C@H](COC(C)(C)C)N(C)C(=O)C(c3ccccc3)NC(=O)[C@H](C)N(C)C(=O)COc3cccc2c3)cc1OC (some centres unmarked)"
  TARGET: "MIF (Homo sapiens)"
  CATEGORY: "N"
- COMPOUND: "COc1ccc(CC[C@H]2OC(=O)[C@@H]3CCCCN3C(=O)C(=O)C(C)(C)COC(=O)C=CCCN(C)C(=O)[C@@H]3CCCN3C(=O)[C@H](COC(C)(C)C)N(C)C(=O)C(c3ccccc3)NC(=O)[C@@H](C)N(C)C(=O)COc3cccc2c3)cc1OC (some centres unmarked)"
  TARGET: "MIF (Homo sapiens)"
  CATEGORY: "N"
- COMPOUND: "COc1ccc(CC[C@H]2OC(=O)[C@@H]3CCCCN3C(=O)C(=O)C(C)(C)COC(=O)C=CCCN(C)C(=O)[C@H](Cc3ccccc3)NC(=O)[C@H](COC(C)(C)C)N(C)C(=O)[C@@H](CC(C)C)NC(=O)CN(C)C(=O)COc3cccc2c3)cc1OC"
  TARGET: "MIF (Homo sapiens)"
  CATEGORY: "Y"
- COMPOUND: "CCC[C@@H]1NC(=O)[C@H](COC(C)(C)C)N(C)C(=O)C(c2ccccc2)NC(=O)CN(C)C(=O)COc2cccc(c2)[C@@H](CCc2ccc(OC)c(OC)c2)OC(=O)[C@@H]2CCCCN2C(=O)C(=O)C(C)(C)COC(=O)C=CCCN(C)C1=O (some centres unmarked)"
  TARGET: "MIF (Homo sapiens)"
  CATEGORY: "Y"
- COMPOUND: "COc1ccc(CC[C@H]2OC(=O)[C@@H]3CCCCN3C(=O)C(=O)C(C)(C)COC(=O)C=CCCN(C)C(=O)CNC(=O)[C@H](Cc3ccccc3)N(C)C(=O)[C@@H](C)NC(=O)CN(C)C(=O)COc3cccc2c3)cc1OC"
  TARGET: "MIF (Homo sapiens)"
  CATEGORY: "N"
- COMPOUND: "COc1cc(F)c(CCC2OC(=O)[C@@H]3CCCCN3C(=O)C(=O)C(C)(C)COC(=O)C=CCCN(C)C(=O)[C@@H]3CCCN3C(=O)[C@H](COC(C)(C)C)N(C)C(=O)C(c3ccccc3)NC(=O)[C@H](C)N(C)C(=O)COc3cccc2c3)cc1OC (some centres unmarked)"
  TARGET: "MIF (Homo sapiens)"
  CATEGORY: "Y"
- COMPOUND: "COc1ccc(CC[C@H]2OC(=O)[C@@H]3CCCCN3C(=O)C(=O)C(C)(C)COC(=O)C=CCCN(C)C(=O)[C@H](c3ccccc3)NC(=O)[C@H](COC(C)(C)C)N(C)C(=O)C(c3ccccc3)NC(=O)CN(C)C(=O)COc3cccc2c3)cc1OC (some centres unmarked)"
  TARGET: "MIF (Homo sapiens)"
  CATEGORY: "N"
- COMPOUND: "COc1ccc(CC[C@H]2OC(=O)[C@@H]3CCCCN3C(=O)C(=O)C(C)(C)COC(=O)C=CCCN(C)C(=O)[C@@H]3CCCN3C(=O)[C@H](COC(C)(C)C)N(C)C(=O)C(c3ccccc3)NC(=O)[C@H](C)N(C)C(=O)COc3ccc(F)c2c3)cc1OC (some centres unmarked)"
  TARGET: "MIF (Homo sapiens)"
  CATEGORY: "N"

----------
Each item that follows carries a reported (%) inhibition of MIF nuclease activity.
Target: MIF (Homo sapiens)
Assay: Nuclease assay of Example 3 (MIF inhibitory activity, Table 4)
Assay type: biochemical
Parameters: concentration or dose not given beside the values
Details: nuclease assay of Example 3

- COMPOUND: "COc1ccc(CC[C@H]2OC(=O)[C@@H]3CCCCN3C(=O)C(=O)C(C)(C)COC(=O)C=CCCN(C)C(=O)[C@H](CC3CCCCC3)NC(=O)[C@H](COC(C)(C)C)N(C)C(=O)[C@@H](CC(C)C)NC(=O)CN(C)C(=O)COc3cccc2c3)cc1OC [compound 12]"
  (%) inhibition of MIF nuclease activity: 28.9
- COMPOUND: "COc1ccc(CC[C@H]2OC(=O)[C@@H]3CCCCN3C(=O)C(=O)C(C)(C)COC(=O)C=CCCN(C)C(=O)[C@@H](Cc3ccccc3)NC(=O)[C@H](COC(C)(C)C)N(C)C(=O)[C@@H](CC(C)C)NC(=O)CN(C)C(=O)COc3cccc2c3)cc1OC [compound 9]"
  (%) inhibition of MIF nuclease activity: 16.5
- COMPOUND: "COCC[C@@H]1NC(=O)[C@H](Cc2ccccc2)N(C)C(=O)[C@@H](C)NC(=O)CN(C)C(=O)COc2cccc(c2)[C@@H](CCc2ccc(OC)c(OC)c2)OC(=O)[C@@H]2CCCCN2C(=O)C(=O)C(C)(C)COC(=O)C=CCCN(C)C1=O [compound 65]"
  (%) inhibition of MIF nuclease activity: 20.1
- COMPOUND: "CCC[C@@H]1NC(=O)[C@H](COC(C)(C)C)N(C)C(=O)C(c2ccccc2)NC(=O)[C@H](C)N(C)C(=O)COc2cccc(c2)[C@@H](CCc2ccc(OC)c(OC)c2)OC(=O)[C@@H]2CCCCN2C(=O)C(=O)C(C)(C)COC(=O)C=CCCN(C)C1=O (stereo partly shown) [compound 49]"
  (%) inhibition of MIF nuclease activity: 14.7

Every entry's value here was drawn from patent US20220372014A1.
